experiment: Half life in mice plasma; type: ADME, organism-based; details: mouse
observation_type: half-life (h)
Give the value, in units of h, as a plain number.

// worked examples, half-life included
compound	unit_string	half-life
COc1ccc(O)c(C(=O)c2ccc(C(=O)N[C@@H]3CCCNCC3NC(=O)c3ccncc3)cc2)c1F.Cl.Cl (some centres undefined)	h	69
COc1ccc(O)c(C(=O)c2ccc(CN[C@@H]3CCCNC[C@H]3NC(=O)c3ccncc3)cc2)c1F.Cl	h	161

For the compound COc1ccc(O)c(C(=O)c2ccc(CO[C@@H]3CCCNCC3NC(=O)c3ccncc3)cc2)c1F.Cl.Cl (some centres undefined) , give its reported half-life. 29

---

target: cAMP-dependent protein kinase A (Bos taurus, UniProt P00515+P00517+P05131+P31322); experiment: Inhibition of bovine protein kinase A (PKA)
Property: pIC50; scope: individual compounds
Units for pIC50: none; it is -log10 of a concentration expressed in mol/L.

Specify measured pIC50 for COc1ccc(O)c(C(=O)c2ccc(CN[C@@H]3CCCNC[C@H]3NC(=O)c3ccncc3)cc2)c1F.Cl . 6.10

For the compound COc1ccc(O)c(C(=O)c2ccc(NC[C@@H]3CCCNCC3NC(=O)c3ccncc3)cc2)c1F (some centres not stated) , report pIC50. 4.35

---

RAC-alpha serine/threonine-protein kinase (Homo sapiens, UniProt P31749) data, read-out pIC50
Sequence (P31749 whole entry): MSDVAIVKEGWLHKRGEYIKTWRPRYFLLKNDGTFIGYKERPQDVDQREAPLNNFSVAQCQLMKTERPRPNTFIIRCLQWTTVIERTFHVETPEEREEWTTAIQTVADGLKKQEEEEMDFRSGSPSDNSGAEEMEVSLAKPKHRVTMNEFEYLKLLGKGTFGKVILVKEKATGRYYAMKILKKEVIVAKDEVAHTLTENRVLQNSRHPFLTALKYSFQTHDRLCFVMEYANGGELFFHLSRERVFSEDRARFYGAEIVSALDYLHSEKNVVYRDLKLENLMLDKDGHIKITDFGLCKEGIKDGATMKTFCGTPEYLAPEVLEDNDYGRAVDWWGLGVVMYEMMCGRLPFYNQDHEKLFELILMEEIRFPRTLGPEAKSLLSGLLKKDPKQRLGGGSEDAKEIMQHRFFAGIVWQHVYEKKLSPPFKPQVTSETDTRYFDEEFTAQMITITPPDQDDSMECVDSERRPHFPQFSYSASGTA
# log scale: pIC50 equals minus log10 of the concentration in mol/L

molecule	pIC50
COc1ccc(O)c(C(=O)c2ccc(/C=C/[C@@H]3CCCNC[C@H]3NC(=O)c3ccncc3)cc2)c1F	6.80

Output pIC50 of COc1ccc(O)c(C(=O)c2ccc(CN[C@@H]3CCCNC[C@H]3NC(=O)c3ccncc3)cc2)c1F.Cl 5.52

src = ChEMBL document CHEMBL1149095
